test description: Pharmacokinetic evaluation following intravenous and oral administration in rats
Assay type: in vivo
conditions used: male, Sprague-Dawley, plasma, 1 mg/kg; rat; intravenous administration, 1 mg/mL at 1.0 mL/kg; read-out: CI (clearance) (converted)
test readout: clearance (mL/min/kg)
Quick note: give the figure in mL/min/kg, leave out the unit.

Observe how each entry below is paired with its result.
CS(=O)(=O)c1ncccc1/C=[N+](\[O-])Cc1ccccc1 [Compound 75] | 21.8
CCNS(=O)(=O)c1ccc(/C=[N+](\[O-])C(C)(C)C)cc1 [Compound 24] | 59

**Q:** May I ask what clearance has been recorded for CCS(=O)(=O)c1ccc(/C=[N+](\[O-])C(C)(C)C)cc1 [Compound 67] ?
**A:** 1.17

**Q:** Which clearance is reported for this compound? CC(C)(C)/[N+]([O-])=C/c1ccc(S(=O)(=O)N2CCCCC2)cc1 [Compound 28]
**A:** 19

**Q:** Fill blank: measured clearance of the compound CCS(=O)(=O)c1ccc(/C=[N+](\[O-])C(C)(C)C)c(S(=O)(=O)CC)c1 [Compound 64] is ____.
**A:** 13.8

**Q:** Please report the recorded clearance for CC(C)S(=O)(=O)c1ccccc1/C=[N+](\[O-])C(C)(C)C [Compound 69] .
**A:** 14

**Q:** Sample CC(C)(C)/[N+]([O-])=C/c1cc2ccccc2nc1S(C)(=O)=O [Compound 74] — what was its clearance?
**A:** 376

**Q:** Data request, read-out clearance, for CC(C)(C)NC(=O)c1ccc(/C=[N+](\[O-])C(C)(C)C)cc1 [Compound 18]
**A:** 21.5

**Q:** Entry under review: CC(C)(C)/[N+]([O-])=C/c1ccc(S(=O)(=O)N2CCOCC2)cc1 [Compound 23] . Reported clearance?
**A:** 28
